tested on: 3H-glutamate release from rat brain synaptosomes; assay: Inhibition of K+-evoked 3H-glutamate release from synaptosomes (rapid superfusion); format: cell-based; conditions: Rattus norvegicus, read-out: Inhibition of Glutamate Release (Persistent Component), % Inhibition @ 10 uM
Structures can show the parent of a compound that is named as a salt.
Please use true (1) whenever inhibition at 10 µM is not below 50%, and false (0) whenever it is.

Incoming: Confirm if inhibition at 10 µM reported for the molecule N=C(NC1C2CC3CC(C2)CC1C3)NC1C2CC3CC(C2)CC1C3 (centres unmarked) [N,N'-di-(adamantan-2-yl)guanidine, Hydrochloride] is 50% or above.
Outgoing: true (1)

Incoming: Assess whether reported inhibition at 10 µM for `N=C(Nc1cccc2ccccc12)Nc1cccc2ccccc12` sits at 50% or higher.
Outgoing: false (0)

Incoming: Is inhibition at 10 µM for `N=C(Nc1ccc(F)c2ccccc12)Nc1ccc2c3c(cccc13)CC2` at or above 50%?
Outgoing: true (1)

Incoming: Would you say Br.N=C(Nc1ccc2c3c(cccc13)CC2)Nc1ccc2c3c(cccc13)CC2 [N,N'-Bis(5-acenaphthyl)guanidine, Hydrobromide] shows inhibition at 10 µM at minimum 50%?
Outgoing: true (1)

Incoming: Does the reported inhibition at 10 µM for `C1CCC(N=C(NNC(=NC2CCCCC2)NC2CCCCC2)NC2CCCCC2)CC1` fall at or above the 50% mark?
Outgoing: true (1)

Incoming: API: above_or_equal(metric=inhibition at 10 µM, cutoff=50%) for item N=C(Nc1ccc2c3c(cccc13)CC2)NC1C2CC3CC(C2)CC1C3 (centres unmarked)
Outgoing: true (1)

Incoming: Exam item: decide whether the reported inhibition at 10 µM for `N=C(Nc1ccc(O)c2ccccc12)Nc1ccc2c3c(cccc13)CC2` is at least 50%.
Outgoing: false (0)
